- Tested on: M19-MEL melanoma
- methodNotes: NCI tumour cell line growth inhibition, 48 h
Below, each of the molecules is paired with its reported TGI value.
recordedEndpoint: TGI

INSERT INTO assay_data (molecule, reading) VALUES
  ('COc1ccc(-c2onc(-c3ccc([N+](=O)[O-])cc3)c2C2=NCCN2)cc1', '> 100 µM'),
  ('Cc1c[nH]c2c(O)cc3c(c12)[C@H](CCl)CN3C(=O)c1cc2cc(NC(=O)Nc3ccc4[nH]c(C(=O)N5C[C@@H](CCl)c6c5cc(O)c5[nH]cc(C)c65)cc4c3)ccc2[nH]1', '3.44 ng/mL'),
  ('COC(=O)C1C(C(=O)OC)C2(OC)c3ccccc3-c3ccccc3C12 (stereo not drawn)', '> 100 µM'),
  ('CCCCCCCCC[C@@H]1CC(=O)OCC2OC(O[C@H](CCCCCCCCC)CC(=O)OCC3OC(O[C@H](CCCCCCCCC)CC(=O)OCC4OC(O1)C(O)C(O)C4O)C(O)C(O)C3O)C(O)C(O)C2O (stereo partly drawn)', '16.5 µM'),
  ('CCNC(=O)CCN(C(=O)O)S(=O)(=O)c1ccc(NC(=O)c2ccccc2)cc1', '> 100 µM'),
  ('Ic1ncnc2c1ncn2C1CCCO1 (stereo not drawn)', '> 100 µM'),
  ('CC/C(C)=C1\CCC(CN2CCOCC2)C1=O (stereo not drawn)', '30 µM'),
  ('COC(=O)c1s/c(=N\C(=S)N(C)C)n(-c2ccccc2)c1C(=O)OC', '> 100 µM');
